test system: PBMC; experiment: Cytotoxicity against normal human PBMC assessed as reduction in cell viability after 48 hrs by Alamar blue assay; format: functional, cell-based

molecule	IC50
CC1(C)OC2=C(C(=O)C(=O)c3ccccc32)C1n1cc(CCCCl)nn1 (stereo unspecified)	> 10 µM

###

experiment: Cytotoxicity against human KG1 cells after 48 hrs by Alamar blue assay; type: functional, cell-based; conditions: KG-1, 48 h
Threshold 4 µM. IC50 below it: yes. IC50 at it or above: no.

compound	category-label
CC1(C)OC2=C(C(=O)C(=O)c3ccccc32)C1n1cc(C2=CCCCC2)nn1 (stereo not given)	no
CC1(C)OC2=C(C(=O)C(=O)c3ccccc32)C1n1cc(-c2ccccc2)nn1 (stereo not given)	no
CCCc1cn(C2C3=C(OC2(C)C)c2ccccc2C(=O)C3=O)nn1 (stereo not given)	yes
CCCCc1cn(C2C3=C(OC2(C)C)c2ccccc2C(=O)C3=O)nn1 (stereo not given)	yes
CC1(C)OC2=C(C(=O)C(=O)c3ccccc32)C1n1cc(CO)nn1 (stereo not given)	no
